Target: GlcNAc(b1-3)Fuc
Assay: glycan array binding signal (z-score within array); higher = stronger binding
Settings: glycan notation: IUPAC condensed, linker removed
The entries come from a sample that favours the strongest signals as a whole.
In this section we review reported glycan array binding signal (z-score) values for a set of binders.

Binder	glycan array binding signal (z-score)
Epa7 (Candida glabrata), Q6DTM6_CANGB (protein) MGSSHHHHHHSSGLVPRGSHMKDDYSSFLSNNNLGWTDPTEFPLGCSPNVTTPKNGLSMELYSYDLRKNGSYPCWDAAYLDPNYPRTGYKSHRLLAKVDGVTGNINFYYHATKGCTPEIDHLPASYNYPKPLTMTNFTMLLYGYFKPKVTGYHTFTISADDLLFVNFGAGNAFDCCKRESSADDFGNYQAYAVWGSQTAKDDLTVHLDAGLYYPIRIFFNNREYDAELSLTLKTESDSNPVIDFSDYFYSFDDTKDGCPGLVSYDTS	-0.233
SAOUHSC 02783 (Staphylococcus aureus), Q5HD69 (protein) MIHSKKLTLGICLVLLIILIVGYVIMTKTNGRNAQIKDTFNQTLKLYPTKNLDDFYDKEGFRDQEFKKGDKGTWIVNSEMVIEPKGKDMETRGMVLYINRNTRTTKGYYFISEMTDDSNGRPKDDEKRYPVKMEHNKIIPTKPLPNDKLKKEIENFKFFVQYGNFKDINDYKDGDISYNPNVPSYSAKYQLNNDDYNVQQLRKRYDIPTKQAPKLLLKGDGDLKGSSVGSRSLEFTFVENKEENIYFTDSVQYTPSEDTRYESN	-0.235
